- Test system: Neuregulin-1 EGF-like domain
- EXPERIMENTAL DETAILS: binders of neuregulin-1 EGF-like domain, primary screen, biochemical, small-molecule microarray, 635 nm fluorescence (AID 1081);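 also: binding of the protein to compounds printed on small-molecule microarray slides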
- CONDITIONS USED: small-molecule microarray binding, higher = more signal
Binary call on composite z-score: Satisfied from 1 upward, Not satisfied beneath that.

For orientation, consider the following solved cases.
# COMPOUND, TGT, DISCRETE LABEL
data = [
    ("C=C[C@@H](C)[C@H](OC(=O)Nc1ccc(SC)cc1)c1ccc(OCCO)cc1", "Neuregulin-1 EGF-like domain", "Satisfied"),
    ("O=C(CS)NCCCCCCNC(=O)[C@@H]1C[C@@H]2C(=O)N3CCC[C@H]3C(=O)N2[C@@H]1c1cccc(OCCO)c1", "Neuregulin-1 EGF-like domain", "Not satisfied"),
    ("Cc1ccc(F)cc1S(=O)(=O)N[C@@H]1CCN(Cc2ccc(OC(C)C)cc2)C1", "Neuregulin-1 EGF-like domain", "Not satisfied"),
    ("C=C[C@H](COC(C)=O)NS(=O)(=O)c1ccc(Br)cc1", "Neuregulin-1 EGF-like domain", "Not satisfied"),
    ("C[C@H]1ON(c2ccc(C(=O)OC(C)(C)C)cc2)[C@@H](c2ccc(O)cc2)[C@@H]1C(=O)N1C(=O)OC[C@@H]1c1ccccc1", "Neuregulin-1 EGF-like domain", "Satisfied"),
    ("C=CCN1C(=O)[C@]2(CC=C)N=C(c3ccc(OCCCO)cc3)O[C@@H]2c2ccccc21", "Neuregulin-1 EGF-like domain", "Satisfied"),
    ("C[C@H]1C2=C3C(CC[C@H]4C(OCc5ccc(F)cc5C(F)(F)F)OC[C@](C)([C@@H]34)N(C(=O)OC(C)(C)C)C2)C2COC(=O)OCC21 (stereo partly specified)", "Neuregulin-1 EGF-like domain", "Satisfied"),
    ("C=CCC(OC(C)=O)[C@@H]1[C@@H](N(Cc2cc3ccccc3o2)C(=O)c2ccc(C)cc2)c2cc(OCCCO)ccc2N1C(=O)Cc1ccc2ccccc2c1 (stereo partly specified)", "Neuregulin-1 EGF-like domain", "Not satisfied"),
    ("CCOC(=O)C[C@H]1[C@H](OC(=O)Cc2ccc3c(c2)OCO3)[C@@H](NC(=O)Cc2ccc(OC)cc2)c2cc(OCCCO)ccc2N1C(=O)c1ccccc1", "Neuregulin-1 EGF-like domain", "Not satisfied"),
    ("COC(=O)C1(Cc2ccccc2)C=C2C(=C(C(C)C)C(=O)C2C)CN1 (stereo unspecified)", "Neuregulin-1 EGF-like domain", "Not satisfied"),
]

Q: Quick check: does O=C(CS)NCCCCCCNC(=O)[C@H]1C[C@H]2C(=O)N[C@@H](Cc3ccccc3)C(=O)N2[C@H]1c1cccc(OCCO)c1 have composite z-score greater than or equal to 1?
Ans: Satisfied

Q: Similarly, [N-]=[N+]=NCc1ccccc1C[C@@]1(C(=O)N2CCCCC2)N=C(c2ccc(OCCCO)cc2)O[C@@H]1c1ccccc1N=[N+]=[N-] ?
Ans: Satisfied

Q: Similarly, O=c1cccc(-c2ccc(C(F)(F)F)cc2)o1 ?
Ans: Not satisfied

Q: Similarly, O=C1NC(=O)C2C1C=CC(C(O)c1ccc3c(c1)OCO3)N2Nc1ccccn1 (stereo unspecified) ?
Ans: Satisfied

Q: Similarly, C=CCOC(=O)[C@@H]1[C@H]2C(=O)O[C@H](c3ccccc3)[C@H](c3ccccc3)N2[C@H](c2ccc(OCCOC(=O)[C@H]3C[C@H]4C(=O)N[C@@H](CCCCNC(C)=O)C(=O)N4[C@H]3c3cccc(OCCO)c3)cc2)[C@@]12C(=O)Nc1ccc(I)cc12 ?
Ans: Satisfied

###

- Test system: Sonic hedgehog protein (Shh)
- EXPERIMENTAL DETAILS: small-molecule binders of Shh protein, primary screen, biochemical, small-molecule microarray, 635/667 nm fluorescence (AID 1151);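 also: Shh protein binding to compounds spotted on small-molecule microarray slides; score combines spot fluorescence intensity with signal-to-noise across triplicate slides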
- CONDITIONS USED: small-molecule microarray binding, 635 nm fluorescence; higher = more signal
Reported composite z-score values are given for each entry in this list.
// keep it numeric: no unit symbol after the value

# COMPOUND, NUMERIC READOUT
data = [
    ("O=C1NCC(=O)N2[C@@H]1C[C@@H](C(=O)O)[C@H]2c1ccc(O)cc1", 2.01),
    ("NCCCCCNC(=O)[C@@H]1C[C@@H]2C(=O)N[C@@H](CCCCN)C(=O)N2[C@@H]1c1cccc(OCCO)c1", 1.55),
    ("COCCOC(=O)N1C(=O)[C@@]2(c3cc(C#CC4=CCCCC4)ccc31)[C@H](c1ccc(O)cc1)N1[C@H](c3ccccc3)[C@H](c3ccccc3)OC(=O)[C@H]1[C@@H]2C(=O)Nc1nc2ccccc2s1", 1.73),
    ("COc1cc(CO)cc(I)c1O[C@H]1C=C(C(=O)NCCO)C[C@@H](NCc2ccccc2F)[C@@H]1O", 0.485),
    ("CC(=O)n1cc(C(O)C2C=CC3C(=O)N(Cc4ccccc4)C(=O)C3N2n2cnnc2)c2ccccc21 (configuration not stated)", 0.204),
    ("C=C(/C(=C/C[C@@H](OC(=O)c1ccncc1)c1ccccc1OCCO)c1cc(C(=O)OC)ccc1OC)C(C)C", 0.698),
]

Q: Can you share its composite z-score? I mean this compound: O=C1O[C@@H](c2ccccc2)[C@@H](c2ccccc2)N2[C@@H](c3ccccc3OCCO)[C@]3(C(=O)Nc4ccc(C#CCCO)cc43)[C@@H](C(=O)N3CCN(c4ncccn4)CC3)[C@H]12
Ans: -0.105

###

- System: glycogen synthase kinase-3 (GSK3A per assay name; protocol says GSK3B)
- EXPERIMENTAL DETAILS: GSK3 binders on small-molecule microarrays, primary screen, biochemical, small-molecule microarray, 635 nm fluorescence, GSK3A (AID 1103); also: the record names both GSK3A and GSK3B
- CONDITIONS USED: small-molecule microarray binding, fluorescence 635 nm; higher = more signal
REPORTED PROPERTY: composite z-score
// keep it numeric: no unit symbol after the value

Please review the following examples before continuing.
# RECORD SMILES, composite z-score
measured = [
    ("C=CCNC(=O)[C@@H]1[C@H]2C(=O)O[C@H](c3ccccc3)[C@H](c3ccccc3)N2[C@H](c2ccccc2OCCO)[C@@]12C(=O)N(C(=O)OCCOC)c1ccc(C#CC3=CCCCC3)cc12", 1.16),
    ("C=CCN1C(=O)[C@@]2(O[C@@H](CCO)[C@H]([Si](C)(C)c3ccc(OC)cc3)[C@H]2C)c2cc(N3C(=O)c4ccccc4Oc4ccccc43)ccc21", -0.229),
]

Now for a further compound.
Q: Test system glycogen synthase kinase-3 (GSK3A per assay name; protocol says GSK3B); read-out composite z-score; what value for CCOC(=O)C[C@H]1[C@H](OC(=O)c2ccc(-c3ccccc3)cc2)[C@@H](NC(=O)C2CCCCC2)c2cc(OCCCO)ccc2N1C(=O)c1ccccc1 ?
Ans: 0.258

###

- TGT: Alpha-bungarotoxin (Bungarus multicinctus) (UniProt P60615)
- Sequence (P60615 whole entry, looked up): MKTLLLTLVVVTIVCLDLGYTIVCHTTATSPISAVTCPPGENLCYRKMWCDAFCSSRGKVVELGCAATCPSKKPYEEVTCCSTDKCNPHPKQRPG
- EXPERIMENTAL DETAILS: alpha-bungarotoxin binders on microarray, profiling panel, artefact control for SMM control protein annotation, biochemical, small-molecule microarray, Alexa647 label, 635/667 nm fluorescence (AID 1117)
- CONDITIONS USED: alpha-BTX-A647 binding fluorescence, higher = more signal
Reported composite z-score values are given for each entry in this list.
// keep it numeric: no unit symbol after the value

Please review the following examples before continuing.
# MOLECULE, composite z-score
data = [
    ("Cc1ccc(F)cc1S(=O)(=O)N[C@@H]1CCN(Cc2ccc(OC(C)C)cc2)C1", -0.688),
    ("CC(C)C(=C=CC[C@H](O)c1ccc(OCCO)cc1)C[C@H](O)c1cc(Cl)cc(Cl)c1O", 1.44),
    ("[N-]=[N+]=NCc1ccccc1[C@H]1OC(c2ccc(OCCCO)cc2)=N[C@@]1(CCS(=O)(=O)c1ccccc1)C(N)=O", 2.43),
    ("COc1ccc(NC(=O)O[C@H]2[C@H](OC(=O)Nc3ccc4c(c3)OCO4)[C@@H](OC(=O)Nc3ccc4c(c3)OCO4)[C@@H](OC)O[C@@H]2CO)cc1", 0.663),
    ("CC=CC(O)C1C=CC2C(=O)N(c3ccccc3)C(=O)C2N1Nc1ccccc1 (configuration not stated)", 1.89),
    ("Cc1c(NC(=O)/C(C#N)=C/C=C/c2ccc(N(C)C)cc2)c(=O)n(-c2ccccc2)n1C", 1.04),
]

Q: Test system Alpha-bungarotoxin (Bungarus multicinctus) (UniProt P60615); read-out composite z-score; what value for COCCOC(=O)N1C(=O)[C@@]2(c3cc(C#CC4(O)CCCCCC4)ccc31)[C@H](c1ccccc1OCCO)N1[C@H](c3ccccc3)[C@H](c3ccccc3)OC(=O)[C@H]1[C@@H]2C(N)=O ?
Ans: 1.72

###

- Tested on: glycogen synthase kinase-3 (GSK3A per assay name; protocol says GSK3B)
- EXPERIMENTAL DETAILS: GSK3 binders on small-molecule microarrays, primary screen, biochemical, small-molecule microarray, 635 nm fluorescence, GSK3A (AID 1103); also: the record names both GSK3A and GSK3B
- CONDITIONS USED: small-molecule microarray binding, fluorescence 635 nm; higher = more signal
Each record's composite z-score is compared with label 0: < 0.2; label 1: ≥ 0.2 and < 1; label 2: ≥ 1 to give its class.

For orientation, consider the following solved cases.
# COMPOUND, TGT, DISCRETE LABEL
data = [
    ("O=C(O)[C@H]1C[C@H]2C(=O)N3CCC[C@H]3C(=O)N2[C@H]1c1cccc(OCCO)c1", "glycogen synthase kinase-3 (GSK3A per assay name; protocol says GSK3B)", "label 1"),
    ("CC(C)(C)N1CC=CC23O[C@@H]4C=CCOC(=O)[C@@H]4[C@H]2C(=O)N(CCCO)[C@@H]3C1=O (some centres undefined)", "glycogen synthase kinase-3 (GSK3A per assay name; protocol says GSK3B)", "label 0"),
    ("CC(C)N1CC=CC23O[C@@H]4C=CCOC(=O)[C@@H]4[C@H]2C(=O)N(C(C)CO)[C@@H]3C1=O (some centres undefined)", "glycogen synthase kinase-3 (GSK3A per assay name; protocol says GSK3B)", "label 0"),
]

Q: Returns: class label. Input: O=C(CS)NCCCCCCNC(=O)[C@@H]1C[C@@H]2C(=O)N3CCC[C@H]3C(=O)N2[C@@H]1c1cccc(OCCO)c1
Ans: label 1

Q: Similarly, C=C[C@H](COC(C)=O)NS(=O)(=O)c1ccc(Br)cc1 ?
Ans: label 0
